assayed system: Neutrophil elastase (Homo sapiens)
Sequence (P08246 whole entry): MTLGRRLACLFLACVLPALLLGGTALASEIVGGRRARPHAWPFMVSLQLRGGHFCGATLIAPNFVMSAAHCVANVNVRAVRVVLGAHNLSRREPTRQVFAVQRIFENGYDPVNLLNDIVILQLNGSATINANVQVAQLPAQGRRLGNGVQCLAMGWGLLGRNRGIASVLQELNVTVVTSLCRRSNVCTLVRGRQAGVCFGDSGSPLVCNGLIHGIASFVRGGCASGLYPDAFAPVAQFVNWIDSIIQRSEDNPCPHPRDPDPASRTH
measurement protocol: The compound was evaluated for the inhibitory activity against human neutrophil elastase
pIC50: −log10 of the molar value.

{"line notation": "COc1ccccc1C(=O)N[C@]1(OC)C(=O)N2C(C(=O)OCc3cccc(C)c3)=C(CSc3nncn3CC(=O)O)CO[C@@H]21", "assayed system": "Neutrophil elastase (Homo sapiens)", "pIC50": "< 5.00"}

Where do the numbers come from? From ChEMBL document CHEMBL1133144.
